- Subject of test: T1, AXL-His (Sino Biological Inc., 6x His labels, molecular weight 47.5 Kda) (UniProt P30530-2 26-440, limits assumed)
- T1 construct: Bought reagent; also called target antigen AXL-His; target antigen AXL; not shown: 6x His tag
- T1 sequence (looked up): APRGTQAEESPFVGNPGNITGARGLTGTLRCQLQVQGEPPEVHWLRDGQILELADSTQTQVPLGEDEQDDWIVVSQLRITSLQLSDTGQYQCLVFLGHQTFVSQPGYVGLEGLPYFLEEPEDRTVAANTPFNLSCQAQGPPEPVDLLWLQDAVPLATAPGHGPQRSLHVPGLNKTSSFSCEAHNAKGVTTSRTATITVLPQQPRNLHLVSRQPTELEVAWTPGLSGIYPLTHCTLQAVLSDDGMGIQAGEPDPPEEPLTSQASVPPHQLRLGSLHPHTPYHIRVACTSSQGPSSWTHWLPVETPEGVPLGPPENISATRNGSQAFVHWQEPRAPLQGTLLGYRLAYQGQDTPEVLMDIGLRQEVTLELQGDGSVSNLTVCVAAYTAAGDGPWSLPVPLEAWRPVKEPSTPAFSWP
- Protocol text: ELISA, AXL-His coated at 1 ug/ml
Experimental endpoint: EC50 (µg/mL)
Only the number, expressed in µg/mL, is required.

antibody 6G12M41 (antibody, V domains shown) VH: QVQLVQSGPGLVKPSQSLSLTCSVTGFSISSGYYWNWIRQFPGQKLEWMGYRSYDGSNNYGPSLKNRISITRDTSKNQFFLKLNSVTSEDTATYYCARGWLLHYTMDYWGQGTTVTVSS VL: DIVMTQSPSSVSVTLGQSASISCRSSRSLLHSNGFTYLYWYLQKPGQSPQLLIYQMSNLASGVPDRFSGSGSGTDFTLKISRVEAEDVGVYYCGQNLELPLTFGGGTKLEIK
0.0176
antibody 6G12M11 (antibody, human IgG1, kappa, V domains shown) VH: QVQLVQSGPGLVKPSQSLSLTCAVTGFSISSGYYWNWIRQFPGQKLEWMGYRSYDGSNNYNPSLKNRISITRDTSKNQFFLKLNSVTSEDTATYYCARGWLLHYTMDYWGQGTTVTVSS VL: EIVMTQSPSSVSVTLGQSASISCRSSRSLLHSNGFTYLYWYLQKPGQSPQLLIYQMSNLASGVPDRFSGSGSGTDFTLKISRVEAEDVGVYYCGQNLELPLTFGGGTKLEIKR
0.027
antibody 6G12M21 (antibody, human IgG1, kappa, V domains shown) VH: QVQLVQSGPGLVKPSQSLSLTCSVTGFSISSGYYWNWIRQFPGQKLEWMGYRSYDGSNNYNPSLKNRISITRDTSKNQFFLKLNSVTSEDTATYYCARGWLLHYTMDYWGQGTTVTVSS VL: DIVMTQSPSSVSVTLGQSASISCRSSRSLLHSNGFTYLYWYLQKPGQSPQLLIYQMSNLASGVPDRFSGSGSGTDFTLKISRVEAEDVGVYYCGQNLELPLTFGGGTKLEIKR
0.0253

Attention now turns to another entry.
Qu. Param item = antibody 6G12M31 (antibody, V domains shown) VH: QVQLVQSGPGLVKPSQSLSLTCSVTGFSISSGYYWNWIRQFPGQKLEWMGYRSYDGSNNYDPSLKNRISITRDTSKNQFFLKLNSVTSEDTATYYCARGWLLHYTMDYWGQGTTVTVSS VL: DIVMTQSPSSVSVTLGQSASISCRSSRSLLHSNGFTYLYWYLQKPGQSPQLLIYQMSNLASGVPDRFSGSGSGTDFTLKISRVEAEDVGVYYCGQNLELPLTFGGGTKLEIK ; retrieve measured EC50.
Ans. 0.0211

Entry source: patent US20220411531A1
